Recorded values, source BindingDB's records for doi:10.1021/jm0500875.

Target: Neutrophil collagenase (Homo sapiens, UniProt P22894)
Sequence (P22894 whole entry): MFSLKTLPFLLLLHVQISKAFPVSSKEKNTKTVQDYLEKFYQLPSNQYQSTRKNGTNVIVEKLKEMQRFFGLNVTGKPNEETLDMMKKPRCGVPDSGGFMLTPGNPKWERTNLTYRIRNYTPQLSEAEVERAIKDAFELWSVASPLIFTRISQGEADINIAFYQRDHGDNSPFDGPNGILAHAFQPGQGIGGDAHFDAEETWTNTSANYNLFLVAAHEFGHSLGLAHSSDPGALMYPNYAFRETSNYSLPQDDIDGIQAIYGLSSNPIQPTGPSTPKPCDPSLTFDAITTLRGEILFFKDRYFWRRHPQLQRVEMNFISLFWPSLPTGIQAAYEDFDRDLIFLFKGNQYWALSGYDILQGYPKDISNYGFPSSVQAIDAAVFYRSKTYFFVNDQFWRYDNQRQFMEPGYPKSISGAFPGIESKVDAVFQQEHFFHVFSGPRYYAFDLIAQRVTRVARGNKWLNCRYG
Assay: Enzyme Inhibition Assay
READOUT TYPE: Ki (nM)
Write the answer as a number in nM, unit excluded.

Reference set, count: 6
> print(dat)
                                test.smiles                             tested.target  result.units  reading
1  O=C(NO)C1(S(=O)(=O)c2ccc(Oc3ccccc3)cc2)CCNCC1  Neutrophil collagenase (Homo sapiens, UniProt P22894)            nM      3.5
2  CS(=O)(=O)N1CCC(C(=O)NO)(S(=O)(=O)c2ccc(Sc3ccccc3)cc2)CC1  Neutrophil collagenase (Homo sapiens, UniProt P22894)            nM        4
3  COCCN1CCC(C(=O)NO)(S(=O)(=O)c2ccc(Sc3ccccc3)cc2)CC1  Neutrophil collagenase (Homo sapiens, UniProt P22894)            nM        4
4  O=C(NO)C1(S(=O)(=O)c2ccc(Sc3ccccc3)cc2)CCN(C2CC2)CC1  Neutrophil collagenase (Homo sapiens, UniProt P22894)            nM      3.5
5  O=C(NO)C1(CS(=O)(=O)c2ccc(Oc3ccc(Cl)cc3)cc2)CCOCC1  Neutrophil collagenase (Homo sapiens, UniProt P22894)            nM      1.8
6  CC(=O)N1CCC(C(=O)NO)(S(=O)(=O)c2ccc(Sc3ccccc3)cc2)CC1  Neutrophil collagenase (Homo sapiens, UniProt P22894)            nM        5

Retrieve Ki measured for "O=C(NO)C1(CS(=O)(=O)c2ccc(Oc3ccccc3)cc2)CCN(CCc2ccccc2)CC1" and print it. 3

Retrieve Ki measured for "O=C(NO)C1(CS(=O)(=O)c2ccc(Oc3ccccc3)cc2)CCNCC1" and print it. 2.4

Retrieve Ki measured for "C#CCN1CCC(C(=O)NO)(S(=O)(=O)c2ccc(Sc3ccccc3)cc2)CC1" and print it. 1.8
